- test_system: ΔF508-CFTR (Homo sapiens, UniProt P13569, DEL508-508)
- Construct: host or cells: CFBE41o-, doxycycline-inducible
- Sequence (P13569 with tags, fused parts or gaps DEL508-508): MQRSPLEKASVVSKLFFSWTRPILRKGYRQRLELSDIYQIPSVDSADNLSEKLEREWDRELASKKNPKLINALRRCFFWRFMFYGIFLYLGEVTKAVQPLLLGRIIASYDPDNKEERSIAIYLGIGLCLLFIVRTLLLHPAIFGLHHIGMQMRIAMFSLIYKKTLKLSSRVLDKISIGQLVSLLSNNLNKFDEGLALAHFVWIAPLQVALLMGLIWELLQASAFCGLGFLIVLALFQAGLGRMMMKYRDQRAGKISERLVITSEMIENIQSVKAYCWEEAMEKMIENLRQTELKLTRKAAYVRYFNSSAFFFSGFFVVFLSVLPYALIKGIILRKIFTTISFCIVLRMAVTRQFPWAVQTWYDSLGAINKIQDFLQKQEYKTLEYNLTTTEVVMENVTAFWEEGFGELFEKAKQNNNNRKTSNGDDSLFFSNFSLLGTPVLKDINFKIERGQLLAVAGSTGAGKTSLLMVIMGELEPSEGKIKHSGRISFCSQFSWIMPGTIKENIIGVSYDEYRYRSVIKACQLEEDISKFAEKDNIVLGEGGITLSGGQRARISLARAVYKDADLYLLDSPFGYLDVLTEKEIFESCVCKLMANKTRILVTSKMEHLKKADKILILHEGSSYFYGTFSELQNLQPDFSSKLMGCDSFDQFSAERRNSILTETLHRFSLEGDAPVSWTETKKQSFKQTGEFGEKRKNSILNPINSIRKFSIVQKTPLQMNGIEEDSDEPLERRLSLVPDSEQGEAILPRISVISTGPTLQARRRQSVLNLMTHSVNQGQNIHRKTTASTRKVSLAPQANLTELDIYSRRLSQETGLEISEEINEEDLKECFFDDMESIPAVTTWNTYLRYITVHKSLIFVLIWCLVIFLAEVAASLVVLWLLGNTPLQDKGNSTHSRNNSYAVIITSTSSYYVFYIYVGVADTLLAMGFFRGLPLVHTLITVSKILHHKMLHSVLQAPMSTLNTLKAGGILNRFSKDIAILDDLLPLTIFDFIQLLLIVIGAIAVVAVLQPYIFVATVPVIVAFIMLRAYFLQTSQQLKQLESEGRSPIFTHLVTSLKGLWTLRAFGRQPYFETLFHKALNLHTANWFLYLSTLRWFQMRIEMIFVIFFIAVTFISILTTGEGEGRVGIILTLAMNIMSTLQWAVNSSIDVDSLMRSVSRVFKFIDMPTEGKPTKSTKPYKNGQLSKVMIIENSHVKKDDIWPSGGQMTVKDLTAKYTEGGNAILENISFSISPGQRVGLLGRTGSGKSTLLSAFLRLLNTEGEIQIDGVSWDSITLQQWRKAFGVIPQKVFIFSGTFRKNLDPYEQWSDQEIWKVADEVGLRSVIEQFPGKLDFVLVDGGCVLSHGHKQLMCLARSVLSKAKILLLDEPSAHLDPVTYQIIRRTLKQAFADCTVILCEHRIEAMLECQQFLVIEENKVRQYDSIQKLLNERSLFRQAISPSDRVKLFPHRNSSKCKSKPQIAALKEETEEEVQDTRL
- assay_name: CFTR cell surface levels using HRP-tagged ΔF508-CFTR expressing CFBE cells, intrinsic corrector capacity
- Assay type: cell-based
- Design: concentration or dose not given beside the values
- cond: HRP-tagged ΔF508-CFTR expressing CFBE41o- cells; compound alone (intrinsic corrector capacity); 20 hours at 33° C.
- Text: Measuring CFTR Cell Surface Levels Using HRP-Tagged ΔF508-CFTR Expressing CFBE Cells The HRP-tagged ΔF508-CFTR cell assay measures the expression of CFTR-ΔF508 at the plasma membrane. […] When HRP-tagged ΔF508-CFTR is present at the plasma membrane, the HRP enzyme activity can be measured. The amount of CFTR-ΔF508 that can be rescued to the plasma membrane is correlated with the amount of functional enzyme that can be measured. […]
Class definitions on % Activation: band A (below 200%), band B (200% to below 300%), band C (300% or more)

>  <compound>
COc1ccc(-c2cc(C(=O)NS(C)(=O)=O)nc3c2c(C)nn3-c2ccc(C)c(Cl)c2)cc1

>  <category_label>
band A

$$$$
>  <compound>
COCC1CCN(c2cc(C(=O)NS(=O)(=O)N3CCC(N4CCC[C@H]4COC)CC3)nc3c2c(C2CCC2)nn3-c2ccccc2)CC1

>  <category_label>
band A

$$$$
>  <compound>
CC(C1CCN(c2cc(C(=O)NS(=O)(=O)N(C)C)nc3c2c(C2CCC2)nn3-c2ccc(F)cc2)CC1)N1CCOCC1 (centres unmarked)

>  <category_label>
band C

$$$$
>  <compound>
CCS(=O)(=O)NC(=O)c1cc(-c2ccc(N3CCOCC3)cc2)c2c(C)nn(-c3cc(C)cc(C)c3)c2n1

>  <category_label>
band B

$$$$
>  <compound>
CC(C)c1nn(-c2cccc(C(F)(F)F)c2)c2nc(C(=O)NS(C)(=O)=O)cc(-c3ccc(N(C)C4CCOCC4)nc3)c12

>  <category_label>
band B

$$$$
>  <compound>
COCCS(=O)(=O)NC(=O)c1cc(N2CCC(COC)CC2)c2c(C(C)C)nn(CC(C)C)c2n1

>  <category_label>
band B

$$$$
>  <compound>
CS(=O)(=O)NC(=O)c1cc(N2CCC(N3CCC(C(F)(F)F)C3)CC2)c2c(C3CCC3)nn(-c3ccc(F)cc3)c2n1 (centres unmarked)

>  <category_label>
band C

$$$$
>  <compound>
CN(C)CCCOc1cc(C(=O)NS(C)(=O)=O)nc2c1c(C1CCC1)nn2-c1ccccc1

>  <category_label>
band A

$$$$
>  <compound>
COC1CCN(C2CCN(c3cc(C(=O)NS(=O)(=O)N4CCC4)nc4c3c(C3CCC3)nn4-c3ccc(F)cc3)CC2)CC1

>  <category_label>
band B

$$$$
>  <compound>
CS(=O)(=O)NC(=O)c1cc(N2CC3CC3C2)c2c(C3CCC3)nn(-c3ccccc3)c2n1 (centres unmarked)

>  <category_label>
band B

$$$$
>  <compound>
COCCN(C)c1cc(C(=O)NS(C)(=O)=O)nc2c1c(C(C)C)nn2-c1cccc(C)c1

>  <category_label>
band B

$$$$
>  <compound>
COC1CCCN(c2cc(C(=O)NS(C)(=O)=O)nc3c2c(C(C)C)nn3-c2cccc(C)c2)C1 (centres unmarked)

>  <category_label>
band A

$$$$
>  <compound>
O=C(NS(=O)(=O)NC1CCOCC1)c1cc(N2CCC(N3CCOCC3)CC2)c2c(C3CCC3)nn(-c3ccc(F)cc3)c2n1

>  <category_label>
band C

$$$$
>  <compound>
O=C(NS(=O)(=O)C1CC1)c1cc(N2CCC(CN3CCCC3)CC2)c2c(C3CCC3)nn(-c3ccccc3)c2n1

>  <category_label>
band C

$$$$

---

- test_system: ΔF508-CFTR (Homo sapiens, UniProt P13569, DEL508-508)
- Construct: host or cells: CFBE41o-, doxycycline-inducible
- assay_name: CFTR cell surface levels using HRP-tagged ΔF508-CFTR expressing CFBE cells, in the presence of a co-corrector
- Type: cell-based
- cond: HRP-tagged ΔF508-CFTR CFBE cells, in the presence of 3 μM co-corrector
The entries below are paired with their reported % Activation.
parameter_measured: % Activation (%)

>  <molecule>
COCC1CCN(c2cc(C(=O)NS(=O)(=O)CC3COCCO3)nc3c2c(C2CCC2)nn3-c2ccccc2)CC1 (stereo not shown)

>  <test_system>
ΔF508-CFTR (Homo sapiens, UniProt P13569, DEL508-508)

>  <result_unit>
%

>  <value_observed>
539.75

$$$$
>  <molecule>
CC(C)c1nn(-c2ccc(F)cc2)c2nc(C(=O)NS(C)(=O)=O)cc(OCCCN3CCCCC3)c12

>  <test_system>
ΔF508-CFTR (Homo sapiens, UniProt P13569, DEL508-508)

>  <result_unit>
%

>  <value_observed>
299.25

$$$$
>  <molecule>
CS(=O)(=O)NC(=O)c1cc(CN2CCC(N3CCOCC3)CC2)c2c(C3CCC3)nn(-c3ccc(F)cc3)c2n1

>  <test_system>
ΔF508-CFTR (Homo sapiens, UniProt P13569, DEL508-508)

>  <result_unit>
%

>  <value_observed>
304.8

$$$$
>  <molecule>
Cc1nn(-c2ccc(F)cc2F)c2nc(C(=O)NS(C)(=O)=O)cc(-c3ccc(N4CCOCC4)cc3)c12

>  <test_system>
ΔF508-CFTR (Homo sapiens, UniProt P13569, DEL508-508)

>  <result_unit>
%

>  <value_observed>
440.1

$$$$
>  <molecule>
O=C(c1cc(N2CCC(CN3CCCC3)CC2)c2c(C3CCC3)nn(-c3ccccc3)c2n1)N1CCCS1(=O)=O

>  <test_system>
ΔF508-CFTR (Homo sapiens, UniProt P13569, DEL508-508)

>  <result_unit>
%

>  <value_observed>
227.45

$$$$
>  <molecule>
CN(C)S(=O)(=O)NC(=O)c1cc(N2CCC(N3CC4CC3CO4)CC2)c2c(C3CCC3)nn(-c3ccc(F)cc3)c2n1 (stereo not shown)

>  <test_system>
ΔF508-CFTR (Homo sapiens, UniProt P13569, DEL508-508)

>  <result_unit>
%

>  <value_observed>
342.83

$$$$
>  <molecule>
COCCS(=O)(=O)NC(=O)c1cc(OCC2(C)COC2)c2c(C3CCC3)nn(-c3ccccc3)c2n1

>  <test_system>
ΔF508-CFTR (Homo sapiens, UniProt P13569, DEL508-508)

>  <result_unit>
%

>  <value_observed>
275.45

$$$$

---

- test_system: ΔF508-CFTR (Homo sapiens, UniProt P13569, DEL508-508)
- Construct: host or cells: CFBE41o-, doxycycline-inducible
- assay_name: CFTR cell surface levels using HRP-tagged ΔF508-CFTR expressing CFBE cells, in the presence of a co-corrector
- Format: cell-based
- cond: HRP-tagged ΔF508-CFTR CFBE cells, in the presence of 3 μM co-corrector; read-out: EC50
pEC50: −log10 of the molar value.

>  <smiles_string>
CC(C)c1nn(-c2cccc(N(C)C)c2)c2nc(C(=O)NS(C)(=O)=O)cc(-c3cnc(N(C)C4CCOCC4)nc3)c12

>  <pEC50>
6.05

$$$$
>  <smiles_string>
CN(C)S(=O)(=O)NC(=O)c1cc(OCC2CCN(C3CC3)CC2)c2c(C3CCC3)nn(-c3ccc(F)cc3)c2n1

>  <pEC50>
6.53

$$$$
>  <smiles_string>
COCC1(F)CCN(c2cc(C(=O)NS(C)(=O)=O)nc3c2c(C(C)C)nn3-c2ccc(F)cc2)CC1

>  <pEC50>
6.65

$$$$
>  <smiles_string>
CC(C)c1nn(-c2ccc(F)cc2)c2nc(C(=O)NS(C)(=O)=O)cc(OCC3(C)COC3)c12

>  <pEC50>
6.32

$$$$

---

Quick list: EC50 per entry.
- test_system: ΔF508-CFTR (Homo sapiens, UniProt P13569, DEL508-508)
- Construct: host or cells: CFBE41o-, doxycycline-inducible
- assay_name: CFTR cell surface levels using HRP-tagged ΔF508-CFTR expressing CFBE cells, in the presence of a co-corrector
- Format: cell-based
- cond: HRP-tagged ΔF508-CFTR CFBE cells, in the presence of 3 μM co-corrector; read-out: EC50

>  <compound>
COCC1CCN(c2cc(C(=O)NS(=O)(=O)N3CCC[C@H]3C(=O)N3CCN(C)CC3)nc3c2c(C2CCC2)nn3-c2ccccc2)CC1

>  <test_system>
ΔF508-CFTR (Homo sapiens, UniProt P13569, DEL508-508)

>  <EC50 (nM)>
297

$$$$
>  <compound>
COc1cc(F)cc(-n2nc(C)c3c(-c4c(F)cc(OC)cc4F)cc(C(=O)NS(C)(=O)=O)nc32)c1

>  <test_system>
ΔF508-CFTR (Homo sapiens, UniProt P13569, DEL508-508)

>  <EC50 (nM)>
790

$$$$
>  <compound>
CC(C)Oc1nn(C2CCCCC2)c2nc(C(=O)NS(C)(=O)=O)cc(-c3ccc(C(=O)N4CC5CN(C)CC5C4)cc3)c12 (stereo not shown)

>  <test_system>
ΔF508-CFTR (Homo sapiens, UniProt P13569, DEL508-508)

>  <EC50 (nM)>
971

$$$$
>  <compound>
CC(C)c1nn(-c2ccc(F)cc2)c2nc(C(=O)NS(C)(=O)=O)cc(N3CC4(CCCOC4)C3)c12

>  <test_system>
ΔF508-CFTR (Homo sapiens, UniProt P13569, DEL508-508)

>  <EC50 (nM)>
406

$$$$
>  <compound>
COCC1CCN(c2cc(C(=O)NS(=O)(=O)CC#N)nc3c2c(C2CCC2)nn3-c2ccccc2)CC1

>  <test_system>
ΔF508-CFTR (Homo sapiens, UniProt P13569, DEL508-508)

>  <EC50 (nM)>
553

$$$$
>  <compound>
COCCOCC1(F)CCN(c2cc(C(=O)NS(C)(=O)=O)nc3c2c(C(C)C)nn3-c2ccc(F)cc2)CC1

>  <test_system>
ΔF508-CFTR (Homo sapiens, UniProt P13569, DEL508-508)

>  <EC50 (nM)>
566

$$$$
>  <compound>
CC(C)c1nn(-c2ccc(F)cc2)c2nc(C(=O)NS(C)(=O)=O)cc(OCC3COCCO3)c12 (stereo not shown)

>  <test_system>
ΔF508-CFTR (Homo sapiens, UniProt P13569, DEL508-508)

>  <EC50 (nM)>
1880

$$$$
